Reported binding signal fold over 6E7 parental is given for each of the following binders.
experimental system: T1, human TREM2 (human, UniProt Q9NZC2 19-174, limits assumed)
T1 sequence: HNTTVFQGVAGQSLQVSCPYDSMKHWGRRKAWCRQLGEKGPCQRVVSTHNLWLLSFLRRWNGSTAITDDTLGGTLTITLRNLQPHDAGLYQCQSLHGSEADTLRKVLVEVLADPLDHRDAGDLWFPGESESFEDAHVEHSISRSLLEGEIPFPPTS
experiment description: yeast-displayed Fab FACS, 1st screen 10 nM

{"binder": "V73 (Fab, V domains shown) VH: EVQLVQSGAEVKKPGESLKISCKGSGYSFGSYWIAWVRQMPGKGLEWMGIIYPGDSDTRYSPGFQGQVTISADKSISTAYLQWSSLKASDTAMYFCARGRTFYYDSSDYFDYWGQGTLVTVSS VL: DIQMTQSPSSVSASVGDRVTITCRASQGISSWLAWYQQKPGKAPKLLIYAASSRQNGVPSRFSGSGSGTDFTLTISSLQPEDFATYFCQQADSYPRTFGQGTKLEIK", "binding signal fold over 6E7 parental, fold": 5.12}
{"binder": "V2 (Fab, V domains shown) VH: EVQLVQSGAEVKKPGESLKISCKGSGSSFTSYWIAWVRQMPGKGLEWMGIIYPGDGDTRYSPSFQGQVTISADKSISTAYLQWSSLKASDTAMYFCARSRTFYYDSSDYFDYWGQGTLVTVSS VL: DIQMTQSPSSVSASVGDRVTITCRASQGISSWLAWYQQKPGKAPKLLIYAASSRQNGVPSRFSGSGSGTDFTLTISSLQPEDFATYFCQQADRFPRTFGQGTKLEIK", "binding signal fold over 6E7 parental, fold": 2.55}
{"binder": "V48 (Fab, V domains shown) VH: EVQLVQSGAEVKKPGESLKISCKGSGYSFGSYWIAWVRQMPGKGLEWMGIIYPGDSDVRYSPSFQGQVTISADKSISTAYLQWSSLKASDTAMYFCARMRTFYYDSSDYFDYWGQGTLVTVSS VL: DIQMTQSPSSVSASVGDRVTITCRASQGISSWLAWYQQKPGKAPKLLIYAASSLQTGVPSRFSGSGSGTDFTLTISSLQPEDFATYFCQQADSLPRTFGQGTKLEIK", "binding signal fold over 6E7 parental, fold": 2.42}
